All values here come from the supplement of paper PMC9732359.

assay: protein stability index of a GFP-peptide fusion (yeast GPS) (PSI 1-4); higher = more stable; sorted into four equal gates, so the index is relative within each strain; conditions: ubr1∆
The entries below are paired with their reported protein stability index.
Property: protein stability index

SVSPQMNAILTDVKLTL [SMD1] : 3
NPASATDNMSGRGLWNP [YJL039C/NUP192] : 3.16
SLLEKDIDAVNGAVGKR [ISW2] : 3.31
PNEFMQFKSKEVEKAHP [PRP8] : 3.25
AQDFINAYASFLQRQGK [RPS19A] : 3
WTEKKGKNVINRERFIS [SMD2] : 3.05
GLNAKQLYKARMSIKLL [POP1] : 2.37
KKEEKLNIGKNFAHSDS [SIR4] : 3.11
ISTLQVKLYGREGSSAR [RPB2] : 2.8
DLKSLNVRDDMKPSDNI [SSN2] : 2.57
INKQRVPLSDNAIIEAN [RPL7A] : 2.54
GLFQVLHNFESVAPTKQ [NUT1] : 3.12
AAGAGAAAGAAMIDAGA [FAS2] : 2.99
HPQDFGNPGRIRVLFKE [SEC65] : 3.11
ETPKSNNSLSYHSGRLL [ITC1] : 3.32
TNVYSKDLVIVSNLMGR [RPB3] : 2.79
SAVVGPNGSGKSNVIDS [SMC4] : 2.84
MQKPVPFVPVLDRRFEI [FAS1] : 1.92
ITLENITRLCQTLGLES [MED1] : 1.89
YQELGSLQSSSQTQLEN [MED2] : 3.17
TPNFDDVLKENNDADKG [RIP1] : 1.76
AATIGANFIFSPASGIV [RPT4] : 2.18
IIPTTLEEQQQLEDESS [YML103C/NUP188] : 2.86
SFDEWFNTPFANTGGQD [SNF2] : 3.15
IFHPMIHYSWSFILYYR [YML103C/NUP188] : 1.98
RGKDGKLHVAAKLPGHK [YGL100W/SEH1] : 2.7
SNIPRGSVIQTHIAESA [MCD1] : 2.91
GSSGGVIRMVVLTAAGV [PRE3] : 1.74
TANALPLPAVFSAPIRP [RPL4A] : 1.98
VITIKSRIRVKIEGCIS [RPB7] : 2.07
ESLQKRELLKSQVEDFT [SIR3] : 3.27
LPLLILENSSRSPRVVT [NUT1] : 1.94
SEKGFSKEQIHGSIIIL [YCS4] : 2.73
IVLSDQTQEFFLSSFDD [YJL039C/NUP192] : 3.25
NQKLALVIKSGKYTLGY [RPL30] : 2.93
KKASEISVSSRSDREYP [SRP14] : 2.87
HHIHHFEKKELQEKFLN [IRR1] : 1.56
NNTLSRYADAGNIDTKN [RRP43] : 3.5
TDKSNSPIGFTNSPQIS [SMC2] : 3.03
HDELIDSIPRDVAYLLK [YGL172W/NUP49] : 3.05
THFLLNIYDQLRNKLIE [RRP6] : 2.8
LEEDSKKVNGTSYKKWS [PRP8] : 3.03
PEENATEGPSDKKLNLN [SNF12] : 3.29
DIKDFADKVYTKENLEV [QCR2] : 3.33
KPETPKGPIIISKNPSN [SIR2] : 2.88
DENKAGATSKPAFSFGA [YJL041W/NSP1] : 3.1
RFVMPNQLLAALVAYTP [RRP6] : 1.71
MMLGEHLMSWSKTGIIA [SIN4] : 1.53
RFNAKVSMVKRAIDSLI [CDC53] : 2
MLLLNIFISSDHEFVLI [YMR129W/POM152] : 1.23
TKFKVRGSSSLYTLVIN [RPL38] : 2.13
FVIRREVTKGEKTYTKA [RPS6A] : 3.53
YASFNDTFVHVTDLSGK [RPS14B] : 2.73
IHIQETQEFSKNYTTET [SIR3] : 3.31
KVSDPYVPTRNTFNYDV [RPN4] : 2.08
AHNKPSLFSKIKTFFTQ [YAR002W/NUP60] : 2.73
CRLFFTELASKDNAIYN [YCS4] : 1.32
PQINILQPIKGESARRF [RPC40] : 2.88
KYLIKYNVFRQHTSFQE [CSI1] : 1.19
EDGPRPFKVFLDIGLQR [RPL5] : 3.04
